- targetOrTestSystem: Ephrin type-A receptor 8 (Homo sapiens) (UniProt P29322)
- Sequence (P29322 whole entry): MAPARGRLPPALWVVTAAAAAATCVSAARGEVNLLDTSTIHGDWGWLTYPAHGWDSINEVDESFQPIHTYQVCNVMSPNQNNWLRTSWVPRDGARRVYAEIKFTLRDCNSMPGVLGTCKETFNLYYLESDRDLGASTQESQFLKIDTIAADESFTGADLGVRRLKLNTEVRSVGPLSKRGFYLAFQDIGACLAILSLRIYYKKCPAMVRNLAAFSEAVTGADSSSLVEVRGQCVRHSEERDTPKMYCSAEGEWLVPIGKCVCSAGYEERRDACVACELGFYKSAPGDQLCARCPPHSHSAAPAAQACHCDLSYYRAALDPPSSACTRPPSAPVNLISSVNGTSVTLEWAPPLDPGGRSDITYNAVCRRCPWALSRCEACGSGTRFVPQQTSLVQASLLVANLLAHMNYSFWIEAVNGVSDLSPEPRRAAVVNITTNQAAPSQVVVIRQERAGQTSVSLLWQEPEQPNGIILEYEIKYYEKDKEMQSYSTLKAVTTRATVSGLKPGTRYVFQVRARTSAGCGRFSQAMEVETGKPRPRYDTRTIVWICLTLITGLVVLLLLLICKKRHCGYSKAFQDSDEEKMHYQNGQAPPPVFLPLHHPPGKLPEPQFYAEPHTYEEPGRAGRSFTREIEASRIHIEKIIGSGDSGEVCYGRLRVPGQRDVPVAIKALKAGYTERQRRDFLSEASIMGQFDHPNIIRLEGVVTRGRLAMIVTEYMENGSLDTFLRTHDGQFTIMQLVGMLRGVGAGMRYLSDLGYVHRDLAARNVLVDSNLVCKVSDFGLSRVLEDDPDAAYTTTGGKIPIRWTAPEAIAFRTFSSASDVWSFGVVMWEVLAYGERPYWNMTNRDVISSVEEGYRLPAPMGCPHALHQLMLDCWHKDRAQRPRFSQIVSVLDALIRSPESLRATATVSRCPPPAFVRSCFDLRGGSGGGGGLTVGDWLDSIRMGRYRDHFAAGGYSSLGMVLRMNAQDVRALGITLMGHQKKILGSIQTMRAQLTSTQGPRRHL
- measurementContext: at 1 µM
Quick reference: residual activity of the listed items.

# structureSmilesString, unitAnnotation, residual activity
data = [
    ("O=C1c2ccccc2-[n+]2ccc3c([nH]c4ccccc43)c21", "%", 89),
    ("COc1cc2ncnc(Nc3ccc(Oc4ccccc4)cc3)c2cc1OC", "%", 91),
    ("NC(=O)c1ccc2[nH]c(-c3ccc(Oc4ccc(Cl)cc4)cc3)nc2c1", "%", 94),
    ("Oc1c2ccccc2c2c3c(cccc13)N=N2", "%", 92),
    ("Cc1cc2ncc(-c3ccccc3)nc2cc1C", "%", 97),
    ("Oc1n[nH]c2nnc(-c3c(-c4ccccc4)nn4ccccc34)cc12", "%", 86),
    ("O=C1Nc2cc(Br)ccc2/C1=C1/Nc2ccccc2/C1=N\\O", "%", 69),
    ("O=C1NC(=O)/C(=C\\c2ccc3nccnc3c2)S1", "%", 88),
    ("Nc1nc(Nc2ccc(S(N)(=O)=O)cc2)nn1C(=S)Nc1c(F)cccc1F", "%", 76),
    ("N#CCCc1ccc2c(c1)-c1[nH]c3ccc([N+](=O)[O-])cc3c1CC(=O)N2", "%", 77),
    ("Oc1ccc(Nc2nc(-c3ccc(Cl)cc3)cs2)cc1", "%", 99),
    ("Nc1n[nH]c2nnc(-c3c(-c4ccccc4)nn4ccccc34)cc12", "%", 91),
    ("Cc1nc2cc3nc(-c4cccs4)cnc3cc2n1C", "%", 111),
    ("O=C(O)c1ccc2c3c1cccc3c(=O)n1c3ccccc3nc21", "%", 103),
]

###

- targetOrTestSystem: Ephrin type-A receptor 3 (Homo sapiens)
- Sequence (whole entry): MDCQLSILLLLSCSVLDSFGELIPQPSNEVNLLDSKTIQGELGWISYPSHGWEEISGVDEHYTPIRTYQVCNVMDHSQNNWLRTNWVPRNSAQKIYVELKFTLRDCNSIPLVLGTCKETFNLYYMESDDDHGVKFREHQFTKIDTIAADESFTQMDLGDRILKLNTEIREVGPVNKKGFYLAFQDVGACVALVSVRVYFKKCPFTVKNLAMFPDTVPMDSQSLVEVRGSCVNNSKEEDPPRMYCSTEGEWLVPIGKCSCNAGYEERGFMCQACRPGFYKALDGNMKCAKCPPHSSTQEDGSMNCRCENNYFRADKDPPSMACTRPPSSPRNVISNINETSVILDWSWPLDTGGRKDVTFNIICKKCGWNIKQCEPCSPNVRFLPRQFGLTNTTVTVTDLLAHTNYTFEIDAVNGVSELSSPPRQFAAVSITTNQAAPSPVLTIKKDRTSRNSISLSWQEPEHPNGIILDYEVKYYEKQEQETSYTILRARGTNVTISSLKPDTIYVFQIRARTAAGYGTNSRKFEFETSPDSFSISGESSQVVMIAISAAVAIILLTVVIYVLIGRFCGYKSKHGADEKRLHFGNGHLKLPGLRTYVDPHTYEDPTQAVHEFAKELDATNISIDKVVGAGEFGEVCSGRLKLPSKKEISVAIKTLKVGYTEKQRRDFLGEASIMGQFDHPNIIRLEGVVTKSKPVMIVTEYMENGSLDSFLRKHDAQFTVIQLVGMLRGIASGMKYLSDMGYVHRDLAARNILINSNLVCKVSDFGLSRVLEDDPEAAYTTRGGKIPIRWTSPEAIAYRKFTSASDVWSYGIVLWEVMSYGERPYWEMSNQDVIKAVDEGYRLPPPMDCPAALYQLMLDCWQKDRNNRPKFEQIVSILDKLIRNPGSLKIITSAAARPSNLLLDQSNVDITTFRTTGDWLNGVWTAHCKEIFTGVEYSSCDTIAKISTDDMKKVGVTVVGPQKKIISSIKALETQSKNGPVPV
- measurementContext: at 1 µM
Reported residual activity is given for each of the following compounds.

# structureSmilesString, unitAnnotation, residual activity
data = [
    ("CN(C)CCCn1cc(C2=C(c3c[nH]c4ccccc34)C(=O)NC2=O)c2ccccc21", "%", 109),
    ("Cc1ccc(S(=O)(=O)/C=C/C#N)cc1", "%", 103),
    ("Nc1nc(Nc2ccc(S(N)(=O)=O)cc2)nn1C(=S)Nc1c(F)cccc1F", "%", 65),
    ("O=C1Nc2cc(Br)ccc2/C1=C1/Nc2ccccc2/C1=N\\O", "%", 25),
]

###

- targetOrTestSystem: Serine/threonine-protein kinase ULK2 (Homo sapiens) (UniProt Q8IYT8)
- Sequence (Q8IYT8 whole entry): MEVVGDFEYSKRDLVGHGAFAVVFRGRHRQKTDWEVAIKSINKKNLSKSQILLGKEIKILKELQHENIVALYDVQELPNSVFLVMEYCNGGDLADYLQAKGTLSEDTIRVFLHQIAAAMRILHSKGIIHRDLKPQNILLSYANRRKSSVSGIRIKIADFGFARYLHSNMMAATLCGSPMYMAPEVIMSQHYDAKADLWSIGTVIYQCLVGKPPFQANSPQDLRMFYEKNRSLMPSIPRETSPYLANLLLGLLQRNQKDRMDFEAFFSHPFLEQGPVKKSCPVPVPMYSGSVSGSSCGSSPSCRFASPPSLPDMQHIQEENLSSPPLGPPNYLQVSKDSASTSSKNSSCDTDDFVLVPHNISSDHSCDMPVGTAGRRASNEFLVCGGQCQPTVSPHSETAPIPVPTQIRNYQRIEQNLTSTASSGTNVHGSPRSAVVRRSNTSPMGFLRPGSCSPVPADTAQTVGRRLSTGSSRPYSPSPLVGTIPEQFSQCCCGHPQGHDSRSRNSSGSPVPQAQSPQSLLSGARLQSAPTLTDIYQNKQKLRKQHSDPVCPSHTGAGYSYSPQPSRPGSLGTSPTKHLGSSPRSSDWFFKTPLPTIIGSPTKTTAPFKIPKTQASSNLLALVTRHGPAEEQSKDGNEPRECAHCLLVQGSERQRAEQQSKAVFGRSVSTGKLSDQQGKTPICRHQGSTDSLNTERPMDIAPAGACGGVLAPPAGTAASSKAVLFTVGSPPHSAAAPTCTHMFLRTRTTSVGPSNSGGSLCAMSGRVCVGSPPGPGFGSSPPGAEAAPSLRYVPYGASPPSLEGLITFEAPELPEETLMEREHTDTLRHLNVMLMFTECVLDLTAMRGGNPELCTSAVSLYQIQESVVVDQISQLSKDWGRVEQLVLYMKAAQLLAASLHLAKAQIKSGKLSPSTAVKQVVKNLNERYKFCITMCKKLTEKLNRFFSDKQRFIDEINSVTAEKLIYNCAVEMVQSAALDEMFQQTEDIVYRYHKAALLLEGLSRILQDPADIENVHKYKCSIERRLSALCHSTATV
- measurementContext: at 1 µM
Recorded measurements of residual activity, one per entry

# structureSmilesString, residual activity / %
records = [
    ("Cc1nc(-c2ccccc2)c(-c2ccncc2)o1", 118),
    ("Cn1cnc2cc3c(Nc4cccc(Br)c4)ncnc3cc21", 106),
    ("Oc1c2ccccc2c2c3c(cccc13)N=N2", 90),
    ("NC(=O)c1ccc2[nH]c(-c3ccc(Oc4ccc(Cl)cc4)cc3)nc2c1", 97),
    ("COc1cc2ncnc(N3CCN(C(=O)Nc4ccc(Oc5ccccc5)cc4)CC3)c2cc1OC", 100),
    ("CC#CC(=O)Nc1cc2c(Nc3ccc(F)c(Cl)c3)ncnc2cn1", 99),
    ("O=[N+]([O-])c1ccc(-c2nc(-c3ccc(F)cc3)c(-c3ccncc3)[nH]2)cc1", 112),
    ("CC(=O)O/N=C1\\C(=C2\\C(=O)Nc3cc(Br)ccc32)Nc2ccccc21", 93),
    ("COc1cc2ncnc(Nc3ccc(NC(=O)c4ccccc4)cc3)c2cc1OC", 108),
    ("N#CCCc1ccc2c(c1)-c1[nH]c3ccc([N+](=O)[O-])cc3c1CC(=O)N2", 47),
    ("COc1ccc(C(=O)Nc2sc3c(c2C(N)=O)CCCC3)cc1OC", 102),
]

###

- targetOrTestSystem: LIM domain kinase 1 (Homo sapiens) (UniProt P53667)
- Sequence (P53667 whole entry, looked up, the tested form may be a part): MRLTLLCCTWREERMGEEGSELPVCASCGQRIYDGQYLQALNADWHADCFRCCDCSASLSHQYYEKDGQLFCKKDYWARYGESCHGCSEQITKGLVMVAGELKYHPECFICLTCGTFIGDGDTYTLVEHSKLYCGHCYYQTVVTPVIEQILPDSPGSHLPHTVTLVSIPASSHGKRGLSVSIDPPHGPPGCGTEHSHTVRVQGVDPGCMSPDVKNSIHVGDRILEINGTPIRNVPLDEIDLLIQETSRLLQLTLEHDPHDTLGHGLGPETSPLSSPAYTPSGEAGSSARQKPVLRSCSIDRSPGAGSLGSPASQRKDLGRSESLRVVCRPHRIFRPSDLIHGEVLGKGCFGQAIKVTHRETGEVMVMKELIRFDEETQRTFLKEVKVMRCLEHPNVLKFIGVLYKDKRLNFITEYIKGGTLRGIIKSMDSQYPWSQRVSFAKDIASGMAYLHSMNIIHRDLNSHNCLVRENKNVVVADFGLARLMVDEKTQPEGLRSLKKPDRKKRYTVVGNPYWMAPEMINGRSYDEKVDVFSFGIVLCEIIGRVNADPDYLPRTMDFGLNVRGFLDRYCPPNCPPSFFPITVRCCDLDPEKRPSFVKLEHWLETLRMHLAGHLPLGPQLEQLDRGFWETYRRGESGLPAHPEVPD
- measurementContext: at 1 µM

# structureSmilesString, residual activity / %
records = [
    ("Nc1nc(Nc2ccc(S(N)(=O)=O)cc2)nn1C(=S)Nc1c(F)cccc1F", 5),
    ("O=C(Nc1cccc(Nc2nccc(Nc3cccc(C(F)(F)F)c3)n2)c1)C1CC1", 26),
    ("CCN(CC)CCCCN1c2ccccc2Oc2ccc(Cl)cc21", 133),
    ("Nc1cccc(-c2cc3c(Oc4cccc(O)c4)ncnc3[nH]2)c1", 14),
    ("Oc1n[nH]c2nnc(-c3c(-c4ccccc4)nn4ccccc34)cc12", 77),
    ("COc1cccc(-c2cc(=O)c3ccccc3o2)c1N", 93),
    ("Cc1ccc(S(=O)(=O)/C=C/C#N)cc1", 92),
    ("Ic1cccc(CSc2nnc(-c3ccncc3)o2)c1", 84),
    ("CC(C)n1cnc2c(NCc3ccccc3)nc(NCCCO)nc21", 92),
    ("CNc1cc2c(Nc3cccc(Br)c3)ncnc2cn1", 102),
    ("COc1ccc(C(=O)Nc2sc3c(c2C(N)=O)CCCC3)cc1OC", 102),
    ("Cn1cnc2cc3c(Nc4cccc(Br)c4)ncnc3cc21", 105),
    ("O=C1NC(=O)c2cc(Nc3ccc(F)cc3)c(Nc3ccc(F)cc3)cc21", 100),
    ("Oc1c2ccccc2c2c3c(cccc13)N=N2", 64),
    ("CO[C@H]1[C@@H](OC)C[C@H](C)[C@@H](OC)C2=CC(=O)C=C(NC(=O)/C(C)=C/C=C/[C@H](OC)[C@@H](OC(N)=O)/C(C)=C/[C@@H]1C)C2=O", 109),
    ("O=C1NC(=O)/C(=C\\c2ccc3nccnc3c2)S1", 91),
]

###

- targetOrTestSystem: Calcium/calmodulin-dependent protein kinase type II subunit delta (Homo sapiens) (UniProt Q13557)
- Sequence (Q13557 whole entry): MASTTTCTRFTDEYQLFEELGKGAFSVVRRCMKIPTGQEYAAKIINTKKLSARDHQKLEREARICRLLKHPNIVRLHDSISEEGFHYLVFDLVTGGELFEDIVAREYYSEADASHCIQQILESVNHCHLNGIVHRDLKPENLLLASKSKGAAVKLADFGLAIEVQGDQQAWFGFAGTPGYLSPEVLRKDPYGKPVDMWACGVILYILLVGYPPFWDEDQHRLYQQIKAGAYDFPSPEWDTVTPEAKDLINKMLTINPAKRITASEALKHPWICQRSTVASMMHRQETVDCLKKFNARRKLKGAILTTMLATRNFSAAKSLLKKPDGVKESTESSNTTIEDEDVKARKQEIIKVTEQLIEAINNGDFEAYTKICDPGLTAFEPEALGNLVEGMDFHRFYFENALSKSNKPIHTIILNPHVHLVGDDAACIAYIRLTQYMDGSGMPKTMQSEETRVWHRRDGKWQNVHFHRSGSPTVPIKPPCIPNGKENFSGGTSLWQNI
- measurementContext: at 10 µM
assayMetric: residual activity (%)

# structureSmilesString, unitAnnotation, measuredValue
rows = [
    ("Nc1ccc2ncnc(NCCc3ccc(Oc4ccccc4)cc3)c2c1", "%", 14),
    ("CO[C@H]1C[C@@H]2CC[C@@H](C)[C@@](O)(O2)C(=O)C(=O)N2CCCC[C@H]2C(=O)O[C@H]([C@H](C)C[C@@H]2CC[C@@H](O)[C@H](OC)C2)CC(=O)[C@H](C)/C=C(\\C)[C@@H](O)[C@@H](OC)C(=O)[C@H](C)C[C@H](C)/C=C/C=C/C=C/1C", "%", 99),
    ("COc1cc2ncnc(Nc3ccc(NC(=O)c4ccccc4)cc3)c2cc1OC", "%", 91),
    ("CN(C)CCCn1cc(C2=C(c3c[nH]c4ccccc34)C(=O)NC2=O)c2ccccc21", "%", 5),
]

###

- targetOrTestSystem: Ephrin type-A receptor 1 (Homo sapiens)
- Sequence (whole entry): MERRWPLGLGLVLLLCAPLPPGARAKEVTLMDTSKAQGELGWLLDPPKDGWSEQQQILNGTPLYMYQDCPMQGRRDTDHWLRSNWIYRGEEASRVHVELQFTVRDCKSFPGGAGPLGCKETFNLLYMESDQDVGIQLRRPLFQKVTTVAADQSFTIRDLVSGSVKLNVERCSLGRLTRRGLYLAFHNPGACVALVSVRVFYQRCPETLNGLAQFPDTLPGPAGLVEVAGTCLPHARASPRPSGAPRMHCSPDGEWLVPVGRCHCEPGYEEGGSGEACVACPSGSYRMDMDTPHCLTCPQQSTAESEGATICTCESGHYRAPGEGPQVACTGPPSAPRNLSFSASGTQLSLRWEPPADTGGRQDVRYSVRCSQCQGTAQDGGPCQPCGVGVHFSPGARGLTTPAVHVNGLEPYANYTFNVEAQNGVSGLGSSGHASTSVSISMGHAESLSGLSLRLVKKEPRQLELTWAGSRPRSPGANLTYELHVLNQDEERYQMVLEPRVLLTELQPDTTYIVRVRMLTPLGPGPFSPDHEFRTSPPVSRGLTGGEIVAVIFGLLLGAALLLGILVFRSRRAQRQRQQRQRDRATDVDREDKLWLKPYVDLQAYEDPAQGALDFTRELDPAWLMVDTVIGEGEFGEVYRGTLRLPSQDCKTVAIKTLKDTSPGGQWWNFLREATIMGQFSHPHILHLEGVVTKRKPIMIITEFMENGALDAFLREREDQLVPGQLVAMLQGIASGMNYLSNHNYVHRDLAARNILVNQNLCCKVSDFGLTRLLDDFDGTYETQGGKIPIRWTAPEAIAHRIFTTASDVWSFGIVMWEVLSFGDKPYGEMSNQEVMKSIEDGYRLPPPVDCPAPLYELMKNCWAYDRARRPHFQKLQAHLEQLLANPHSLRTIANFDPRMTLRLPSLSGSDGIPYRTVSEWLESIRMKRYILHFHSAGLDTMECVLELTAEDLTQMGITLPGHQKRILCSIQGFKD
- measurementContext: at 1 µM

# structureSmilesString, residual activity
measured = [
    ("Cn1nc2c3c(cccc31)C(=O)c1ccccc1-2", "88%"),
    ("CCOc1cc2ncnc(Nc3cccc(Br)c3)c2cc1OCC", "32%"),
    ("O=C(Nc1cccc(Nc2nccc(Nc3cccc(C(F)(F)F)c3)n2)c1)C1CC1", "22%"),
    ("Ic1cccc(CSc2nnc(-c3ccncc3)o2)c1", "95%"),
    ("Cc1nc2cc3nc(-c4cccs4)cnc3cc2n1C", "111%"),
    ("CCN(CC)C(=O)c1ccc(Nc2nc(OCC3CCCCC3)c3nc[nH]c3n2)cc1", "60%"),
    ("CC(C)n1cnc2c(NCc3ccccc3)nc(NCCCO)nc21", "99%"),
]
